B1: glmS ribozyme (parent)
chain: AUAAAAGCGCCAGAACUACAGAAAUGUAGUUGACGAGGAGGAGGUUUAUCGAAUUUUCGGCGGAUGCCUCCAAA

- Variants of: B1
- PROCEDURE TEXT: self-cleavage kobs at 10000 uM GlcN6P; higher = faster cleavage; RNA array
- ASSAY CONTEXT: with glucosamine-6-phosphate
This sample holds only a part of the variants without activity.
REPORTED ENDPOINT: self-cleavage kobs at 10000 uM GlcN6P (s⁻¹)
Your answer is read as s⁻¹, so omit the unit and give the number.

Below are worked cases with known answers.
CHAIN	RESULT VALUE
AUAAAAGCGCCAGAAGUACAGAAAUGUAGUUGACGAGGAGGAGGUUUAUCGAAGUUUCGGCGGAUGCCUCCAAA [C16G U54G]	0.00291
AUAAAAGCGCCACAACUACAGAAAUGUAGUUGACGAGGAGGAGGUUUAUGGAAUUUUCGGCGAAUGCCUGCAAA [G13C C50G G63A C70G]	0.000144
AUAAAAGCGCCGGAACUACAGAAAUGUAGUUGACGAGGAGGAGGUUUAUCGAAUUUUCGGCGGAUGCCUGCAAA [A12G C70G]	0.000166
AUAAAAGCGCCAGAAUUACAGAAAUGUAGUUGACGAGGAGGAGGUUUAUCGGAUUUUCGGCGGAUGCCUCCAAA [C16U A52G]	0.0016
AUAAAAGCGCCAGAACUACAGAAAUGUAGUUGACGAGGAGGAGGUAUAUCGAAUUUUCGGCGGAUGCCUCCAAA [U46A]	0.00344

Challenge: Field request: self-cleavage kobs at 10000 uM GlcN6P | item: AUAAAAGCGCCAGUACUACAGAAAUGUAGUUGUCGAGGAGGGGGUUUAUCGAAUUUUCGGCGGAUGCCUCCAAA [A14U A33U A42G]
Response given: 7.49e-05

Challenge: What value of self-cleavage kobs at 10000 uM GlcN6P has been recorded for this entry: AUAAAAGCGCCAGAACUACAGAAAUGUAGUUGUCGAGGAGGAGGUUUAUCGAAGUUUCGGCGGAUGCCUCCAAA [A33U U54G]
Response given: 0.000111

Challenge: Fill blank: measured self-cleavage kobs at 10000 uM GlcN6P of the variant AUAAAAGCGCCAGCACUACAGAAAUGUAGUUGACGAGGUGGAGGUUCAUCGAAUUUUCGGCGGAUGCCUUCAAA [A14C A39U U47C C70U] is ____.
Response given: 0.00047

Challenge: May I ask what self-cleavage kobs at 10000 uM GlcN6P has been recorded for AUAAAAGCGCCAGGACUACAGAAAUGUAGUUGACGAGGAGGAGGUUUAUCGAACUUUCGGCGGAUGCCCCCAAA [A14G U54C U69C] ?
Response given: 0.0047

Challenge: Fill in the blank: the reported self-cleavage kobs at 10000 uM GlcN6P of AUAAAAGCGCCAGCACUACAGAAAUGUACUUGACGAGGAGGAGGUUUAUCGAAUUUUCGGCGGAUGCCUCCAAA [A14C G29C] is ____.
Response given: 0.000438

Challenge: Recorded self-cleavage kobs at 10000 uM GlcN6P of AUAAAAGCGCCAGAACUACAGAAAUGUAGUUGACGAGGCGGAGGUUUAUCGAAUUUUAGGCGGAUGCCUCCAAA [A39C C58A] , please.
Response given: 5.19e-05

Challenge: Returns the measured self-cleavage kobs at 10000 uM GlcN6P for the input variant. Input: AUAAAAGCGCCAGAACUACAGAAAUGUAGUUGACGAGGAGGAGGUAUAUCGAGUUUUCGGCGGAUGCCUCCAAA [U46A A53G]
Response given: 0.00261

Challenge: What value of self-cleavage kobs at 10000 uM GlcN6P has been reported for the following variant? AUAAAAGCGCCAGAACUACAGAAAUGUAGUUUACGAGGAGGAGGAUUAUCGAAUUUUCGGCGGAUGCCUCCAAA [G32U U45A]
Response given: 0.00155
